Molecular target: E. coli RNase P holoenzyme (M1 P RNA + rnpA protein) (UniProt P0A7Y8)
Sequence: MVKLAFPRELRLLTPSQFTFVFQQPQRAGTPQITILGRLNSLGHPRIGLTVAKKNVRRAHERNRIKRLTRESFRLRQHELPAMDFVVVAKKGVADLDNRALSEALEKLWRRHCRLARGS
Experiment: relative kcat/Km (krel) vs genomic leader AAAGAU (relative (reference leader = 1)); higher = faster RNase P cleavage
Details: fraction of substrate reacted: ~13-16% (15.68% repeat 1, 13.17% repeat 2)
The full ranking holds about 4,100 sequences; the median of “relative kcat/Km (krel) vs genomic leader AAAGAU” is about 1.7, and the highest 2% start at about 6.5. The sample as a whole holds a higher share of the highest values than the screen did.
relative kcat/Km overview

For orientation, consider the following solved cases.
- record.sequence: "CCCCGA"
  relative kcat/Km: 4.05
- record.sequence: "GCCTCA"
  relative kcat/Km: 4.02
- record.sequence: "ACCCGA"
  relative kcat/Km: 4.06
- record.sequence: "ATGCAG"
  relative kcat/Km: 0.709
- record.sequence: "CCCTAC"
  relative kcat/Km: 5.08

Incoming: Retrieve relative kcat/Km on E. coli RNase P holoenzyme (M1 P RNA + rnpA protein) (UniProt P0A7Y8); query GCCATC
Outgoing: 3.43

Incoming: Retrieve relative kcat/Km on E. coli RNase P holoenzyme (M1 P RNA + rnpA protein) (UniProt P0A7Y8); query CTACTC
Outgoing: 1.61

Incoming: Retrieve relative kcat/Km on E. coli RNase P holoenzyme (M1 P RNA + rnpA protein) (UniProt P0A7Y8); query GCTTAA
Outgoing: 2.36

Incoming: Retrieve relative kcat/Km on E. coli RNase P holoenzyme (M1 P RNA + rnpA protein) (UniProt P0A7Y8); query TTAACT
Outgoing: 1.54

Incoming: Retrieve relative kcat/Km on E. coli RNase P holoenzyme (M1 P RNA + rnpA protein) (UniProt P0A7Y8); query CCCTTT
Outgoing: 3.73

Incoming: Retrieve relative kcat/Km on E. coli RNase P holoenzyme (M1 P RNA + rnpA protein) (UniProt P0A7Y8); query GGCACA
Outgoing: 1.26

* * *

Target: E. coli RNase P holoenzyme (M1 P RNA + rnpA protein)
Sequence: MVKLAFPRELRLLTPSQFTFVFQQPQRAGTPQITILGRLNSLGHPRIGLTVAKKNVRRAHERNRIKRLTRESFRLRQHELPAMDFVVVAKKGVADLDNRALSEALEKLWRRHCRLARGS
Assay: relative kcat/Km (krel) vs genomic leader AAAGAU (relative (reference leader = 1)); higher = faster RNase P cleavage
Conditions: fraction of substrate reacted: ~9-10% (9.79% repeat 1, 9.1% repeat 2)
The full ranking holds about 4,100 sequences; the median of “relative kcat/Km (krel) vs genomic leader AAAGAU” is about 1.7, and the highest 2% start at about 6.5. This is one part of a sample in which the highest values are shown more often than they occur.
value.type: relative kcat/Km
# print the numeric value only

- record.sequence: "TTCACT"
  relative kcat/Km: 4.07
- record.sequence: "TACAAT"
  relative kcat/Km: 2.84
- record.sequence: "CTCTTG"
  relative kcat/Km: 2.31
- record.sequence: "GGCTTT"
  relative kcat/Km: 2.05
- record.sequence: "TTATAA"
  relative kcat/Km: 3.65
- record.sequence: "TTCGCT"
  relative kcat/Km: 2.88

# ---- query sequence ----
Incoming: Please report the measured relative kcat/Km for ACCCCC
Outgoing: 2.28

* * *

Biological target: E. coli RNase P holoenzyme (M1 P RNA + rnpA protein) (UniProt P0A7Y8)
Sequence: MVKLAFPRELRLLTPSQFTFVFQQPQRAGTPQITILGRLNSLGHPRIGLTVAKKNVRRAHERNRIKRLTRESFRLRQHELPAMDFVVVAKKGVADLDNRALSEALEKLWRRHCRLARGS
Test: relative kcat/Km (krel) vs genomic leader AAAGAU (relative (reference leader = 1)); higher = faster RNase P cleavage
Details: fraction of substrate reacted: ~26-29% (28.66% repeat 1, 26.4% repeat 2)
Whole data set: some 4,100 sequences, median “relative kcat/Km (krel) vs genomic leader AAAGAU” near 1.7, cut for the highest 2% near 6.5. The list comes from a sample in which the highest values are over-represented; it also holds close analogues and randomly drawn sequences.
Param threshold (4) applies to relative kcat/Km; output label 1 when value >= threshold, label 0 when value < threshold.

Past entries and their recorded results:
- record.sequence: "AGCAGC"
  class.name: "label 0"
- record.sequence: "CACAGT"
  class.name: "label 0"
- record.sequence: "AGTTCA"
  class.name: "label 1"
- record.sequence: "TTAATA"
  class.name: "label 0"
- record.sequence: "GCCTAG"
  class.name: "label 0"

Please look at the following sequence next.
Incoming: State whether the measured relative kcat/Km reaches 4, counting equality as reaching it, for GACAGA
Outgoing: label 1

* * *

Target: E. coli RNase P holoenzyme (M1 P RNA + rnpA protein)
Sequence: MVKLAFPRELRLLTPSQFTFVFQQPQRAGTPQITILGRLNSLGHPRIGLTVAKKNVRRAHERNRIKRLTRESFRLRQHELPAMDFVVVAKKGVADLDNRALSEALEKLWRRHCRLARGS
Test: relative kcat/Km (krel) vs genomic leader AAAGAU (relative (reference leader = 1)); higher = faster RNase P cleavage
Details: fraction of substrate reacted: ~13-16% (15.68% repeat 1, 13.17% repeat 2)
In all, about 4,100 sequences were measured (“relative kcat/Km (krel) vs genomic leader AAAGAU”: median about 1.7, highest 2% from about 6.5 on). This is one part of a sample in which the highest values are shown more often than they occur.
Classes are defined on relative kcat/Km with ranges lower level: < 2; middle level: ≥ 2 and < 5; upper level: ≥ 5

Past entries and their recorded results:
- record.sequence: "ACCCGC"
  class.name: "middle level"
- record.sequence: "ACCCCC"
  class.name: "lower level"
- record.sequence: "TGCTCC"
  class.name: "middle level"
- record.sequence: "CGGACA"
  class.name: "lower level"
- record.sequence: "GTCATC"
  class.name: "upper level"

Please look at the following sequence next.
Incoming: Input GTCGAG ; output its category
Outgoing: middle level

* * *

Biological target: E. coli RNase P holoenzyme (M1 P RNA + rnpA protein)
Sequence: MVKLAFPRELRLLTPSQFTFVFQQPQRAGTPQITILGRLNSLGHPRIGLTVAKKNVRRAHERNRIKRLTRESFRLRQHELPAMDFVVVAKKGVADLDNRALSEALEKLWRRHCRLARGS
Test: relative kcat/Km (krel) vs genomic leader AAAGAU (relative (reference leader = 1)); higher = faster RNase P cleavage
Conditions: fraction of substrate reacted: ~9-10% (9.79% repeat 1, 9.1% repeat 2)
Whole data set: some 4,100 sequences, median “relative kcat/Km (krel) vs genomic leader AAAGAU” near 1.7, cut for the highest 2% near 6.5. The sample holds the highest values, similar sequences and a random draw of the others, so the mix is not that of the screen.
value.type: relative kcat/Km
# print the numeric value only

Incoming: Please report the measured relative kcat/Km for TTGTTC
Outgoing: 1.96

* * *

Molecular target: E. coli RNase P holoenzyme (M1 P RNA + rnpA protein) (UniProt P0A7Y8)
Sequence: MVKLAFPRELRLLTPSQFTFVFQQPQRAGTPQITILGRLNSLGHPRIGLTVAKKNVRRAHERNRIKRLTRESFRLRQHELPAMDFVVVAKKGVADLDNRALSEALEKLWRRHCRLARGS
Assay: relative kcat/Km (krel) vs genomic leader AAAGAU (relative (reference leader = 1)); higher = faster RNase P cleavage
Conditions: fraction of substrate reacted: ~26-29% (28.66% repeat 1, 26.4% repeat 2)
Whole data set: some 4,100 sequences, median “relative kcat/Km (krel) vs genomic leader AAAGAU” near 1.7, cut for the highest 2% near 6.5. Only a selection was taken, and the highest values are over-represented in it overall.
Param threshold (4) applies to relative kcat/Km; output label 1 when value >= threshold, label 0 when value < threshold.

Past entries and their recorded results:
- record.sequence: "TGTTTA"
  class.name: "label 1"
- record.sequence: "GCTAGG"
  class.name: "label 0"
- record.sequence: "TCCAGA"
  class.name: "label 1"
- record.sequence: "CCCTAA"
  class.name: "label 1"
- record.sequence: "GAAACG"
  class.name: "label 0"
- record.sequence: "AGTAAT"
  class.name: "label 1"
- record.sequence: "AGTTTT"
  class.name: "label 1"
- record.sequence: "TGATAT"
  class.name: "label 1"
- record.sequence: "TCCAGC"
  class.name: "label 1"
- record.sequence: "TGAAAG"
  class.name: "label 0"

Incoming: State whether the measured relative kcat/Km reaches 4, counting equality as reaching it, for GCCTAA
Outgoing: label 1

Incoming: State whether the measured relative kcat/Km reaches 4, counting equality as reaching it, for AGTTCT
Outgoing: label 1

Incoming: State whether the measured relative kcat/Km reaches 4, counting equality as reaching it, for CCTACA
Outgoing: label 0

Incoming: State whether the measured relative kcat/Km reaches 4, counting equality as reaching it, for CCAACC
Outgoing: label 0

Incoming: State whether the measured relative kcat/Km reaches 4, counting equality as reaching it, for CACAGG
Outgoing: label 0

Incoming: State whether the measured relative kcat/Km reaches 4, counting equality as reaching it, for GCGAAT
Outgoing: label 0

Incoming: State whether the measured relative kcat/Km reaches 4, counting equality as reaching it, for GCTTTC
Outgoing: label 0

Incoming: State whether the measured relative kcat/Km reaches 4, counting equality as reaching it, for ACCTAG
Outgoing: label 1

Taken from the supplement of paper PMC9433436.
